# Lookup of reported Kd keyed by entry
molecular target: Gal-1 (Homo sapiens, UniProt P09382); construct: made in house; host or cells: E. coli BL21(DE3); test: Pull-down assay with immobilized protein and LSM libraries; assay type: binding; conditions: H12 library; 1:1 binding assumed; read-out: Surface mapping KD (apparent)
Sequence (P09382 whole entry): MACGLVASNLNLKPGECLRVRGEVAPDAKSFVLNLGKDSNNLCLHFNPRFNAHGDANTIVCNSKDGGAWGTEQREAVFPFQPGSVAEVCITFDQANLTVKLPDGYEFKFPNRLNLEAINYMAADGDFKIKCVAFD
resultType: Kd (µM)

compound	obsValue
NC(=O)[C@H]1CCC[C@@H]1NC(=O)[C@H]1CCC[C@@H]1NC(=O)C[C@H](CO)NC(=O)[C@H]1CCC[C@@H]1NC(=O)[C@H]1CCC[C@@H]1NC(=O)C[C@H](Cc1ccccc1)NC(=O)[C@H]1CCC[C@@H]1NC(=O)[C@H]1CCC[C@@H]1N [H12 FS]	268
CC[C@H](C)[C@@H](CC(=O)N[C@H]1CCC[C@@H]1C(=O)N[C@H]1CCC[C@@H]1C(N)=O)NC(=O)[C@H]1CCC[C@@H]1NC(=O)[C@H]1CCC[C@@H]1NC(=O)C[C@H](CC(=O)O)NC(=O)[C@H]1CCC[C@@H]1NC(=O)[C@H]1CCC[C@@H]1N [H12 DI]	249

----------
target: S100A4 (Homo sapiens); construct: made in house; host or cells: Escherichia coli BL21(DE3); test: Pull-down assay with immobilized protein and LSM libraries; type: binding; details: H12 library; 1:1 binding assumed; read-out: Surface mapping KD (apparent)
Sequence (P26447 whole entry): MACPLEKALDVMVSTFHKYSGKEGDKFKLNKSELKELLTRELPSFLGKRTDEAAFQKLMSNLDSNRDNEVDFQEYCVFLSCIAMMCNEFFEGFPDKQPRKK
Rule: Kd below 200 µM gives TRUE, anything at or above gives FALSE.

compoundStructure	qualitativeLabel
CSCC[C@@H](CC(=O)N[C@H]1CCC[C@@H]1C(=O)N[C@H]1CCC[C@@H]1C(N)=O)NC(=O)[C@H]1CCC[C@@H]1NC(=O)[C@H]1CCC[C@@H]1NC(=O)C[C@H](CC(C)C)NC(=O)[C@H]1CCC[C@@H]1NC(=O)[C@H]1CCC[C@@H]1N	FALSE
CC(C)[C@@H](CC(=O)N[C@H]1CCC[C@@H]1C(=O)N[C@H]1CCC[C@@H]1C(=O)N[C@@H](CCC(N)=O)CC(=O)N[C@H]1CCC[C@@H]1C(=O)N[C@H]1CCC[C@@H]1C(N)=O)NC(=O)[C@H]1CCC[C@@H]1NC(=O)[C@H]1CCC[C@@H]1N	FALSE
NC(=O)[C@H]1CCC[C@@H]1NC(=O)[C@H]1CCC[C@@H]1NC(=O)C[C@H](Cc1ccccc1)NC(=O)[C@H]1CCC[C@@H]1NC(=O)[C@H]1CCC[C@@H]1NC(=O)C[C@H](Cc1c[nH]c2ccccc12)NC(=O)[C@H]1CCC[C@@H]1NC(=O)[C@H]1CCC[C@@H]1N	TRUE
CC[C@H](C)[C@@H](CC(=O)N[C@H]1CCC[C@@H]1C(=O)N[C@H]1CCC[C@@H]1C(N)=O)NC(=O)[C@H]1CCC[C@@H]1NC(=O)[C@H]1CCC[C@@H]1NC(=O)C[C@H](CC(C)C)NC(=O)[C@H]1CCC[C@@H]1NC(=O)[C@H]1CCC[C@@H]1N	TRUE
CC(C)[C@@H](CC(=O)N[C@H]1CCC[C@@H]1C(=O)N[C@H]1CCC[C@@H]1C(=O)N[C@H](CC(=O)N[C@H]1CCC[C@@H]1C(=O)N[C@H]1CCC[C@@H]1C(N)=O)Cc1c[nH]c2ccccc12)NC(=O)[C@H]1CCC[C@@H]1NC(=O)[C@H]1CCC[C@@H]1N	TRUE
CC[C@H](C)[C@@H](CC(=O)N[C@H]1CCC[C@@H]1C(=O)N[C@H]1CCC[C@@H]1C(=O)N[C@H](CC(=O)N[C@H]1CCC[C@@H]1C(=O)N[C@H]1CCC[C@@H]1C(N)=O)Cc1ccc(O)cc1)NC(=O)[C@H]1CCC[C@@H]1NC(=O)[C@H]1CCC[C@@H]1N	TRUE
N=C(N)NCCC[C@@H](CC(=O)N[C@H]1CCC[C@@H]1C(=O)N[C@H]1CCC[C@@H]1C(N)=O)NC(=O)[C@H]1CCC[C@@H]1NC(=O)[C@H]1CCC[C@@H]1NC(=O)C[C@H](Cc1c[nH]c2ccccc12)NC(=O)[C@H]1CCC[C@@H]1NC(=O)[C@H]1CCC[C@@H]1N	FALSE
NC(=O)[C@H]1CCC[C@@H]1NC(=O)[C@H]1CCC[C@@H]1NC(=O)C[C@H](Cc1c[nH]c2ccccc12)NC(=O)[C@H]1CCC[C@@H]1NC(=O)[C@H]1CCC[C@@H]1NC(=O)C[C@H](Cc1ccc(O)cc1)NC(=O)[C@H]1CCC[C@@H]1NC(=O)[C@H]1CCC[C@@H]1N	TRUE
NC(=O)C[C@@H](CC(=O)N[C@H]1CCC[C@@H]1C(=O)N[C@H]1CCC[C@@H]1C(=O)N[C@@H](CO)CC(=O)N[C@H]1CCC[C@@H]1C(=O)N[C@H]1CCC[C@@H]1C(N)=O)NC(=O)[C@H]1CCC[C@@H]1NC(=O)[C@H]1CCC[C@@H]1N	FALSE
CC(C)C[C@@H](CC(=O)N[C@H]1CCC[C@@H]1C(=O)N[C@H]1CCC[C@@H]1C(N)=O)NC(=O)[C@H]1CCC[C@@H]1NC(=O)[C@H]1CCC[C@@H]1NC(=O)C[C@H](CC(C)C)NC(=O)[C@H]1CCC[C@@H]1NC(=O)[C@H]1CCC[C@@H]1N	TRUE
CC(C)[C@@H](CC(=O)N[C@H]1CCC[C@@H]1C(=O)N[C@H]1CCC[C@@H]1C(N)=O)NC(=O)[C@H]1CCC[C@@H]1NC(=O)[C@H]1CCC[C@@H]1NC(=O)C[C@H](Cc1c[nH]c2ccccc12)NC(=O)[C@H]1CCC[C@@H]1NC(=O)[C@H]1CCC[C@@H]1N	TRUE
CC[C@H](C)[C@@H](CC(=O)N[C@H]1CCC[C@@H]1C(=O)N[C@H]1CCC[C@@H]1C(=O)N[C@H](CC(=O)N[C@H]1CCC[C@@H]1C(=O)N[C@H]1CCC[C@@H]1C(N)=O)C(C)C)NC(=O)[C@H]1CCC[C@@H]1NC(=O)[C@H]1CCC[C@@H]1N	FALSE

----------
biological target: Gal-1 (Homo sapiens, UniProt P09382); construct: made in house; host or cells: E. coli BL21(DE3); test: Pull-down assay with immobilized protein and LSM libraries; assay type: binding; conditions: H14 library; 1:1 binding assumed; read-out: Surface mapping KD (apparent)
Rule: Kd below 200 µM gives Satisfied, anything at or above gives Not satisfied.

compound	qualitativeLabel
C[C@@H](O)[C@@H](CC(=O)N[C@H]1CCCC[C@@H]1C(=O)N[C@H]1CCCC[C@@H]1C(=O)N[C@H](CC(=O)N[C@H]1CCCC[C@@H]1C(N)=O)Cc1ccc(O)cc1)NC(=O)[C@H]1CCCC[C@@H]1N [H14 TY]	Not satisfied
C[C@@H](CC(=O)N[C@H]1CCCC[C@@H]1C(N)=O)NC(=O)[C@H]1CCCC[C@@H]1NC(=O)[C@H]1CCCC[C@@H]1NC(=O)C[C@H](Cc1ccccc1)NC(=O)[C@H]1CCCC[C@@H]1N [H14 FA]	Satisfied
CC(C)[C@@H](CC(=O)N[C@H]1CCCC[C@@H]1C(=O)N[C@H]1CCCC[C@@H]1C(=O)N[C@@H](CO)CC(=O)N[C@H]1CCCC[C@@H]1C(N)=O)NC(=O)[C@H]1CCCC[C@@H]1N [H14 VS]	Satisfied
CC(C)C[C@@H](CC(=O)N[C@H]1CCCC[C@@H]1C(N)=O)NC(=O)[C@H]1CCCC[C@@H]1NC(=O)[C@H]1CCCC[C@@H]1NC(=O)C[C@H](Cc1c[nH]c2ccccc12)NC(=O)[C@H]1CCCC[C@@H]1N [H14 WL]	Satisfied
CC[C@H](C)[C@@H](CC(=O)N[C@H]1CCCC[C@@H]1C(N)=O)NC(=O)[C@H]1CCCC[C@@H]1NC(=O)[C@H]1CCCC[C@@H]1NC(=O)C[C@H](CCSC)NC(=O)[C@H]1CCCC[C@@H]1N [H14 MI]	Satisfied
CSCC[C@@H](CC(=O)N[C@H]1CCCC[C@@H]1C(N)=O)NC(=O)[C@H]1CCCC[C@@H]1NC(=O)[C@H]1CCCC[C@@H]1NC(=O)C[C@H](CO)NC(=O)[C@H]1CCCC[C@@H]1N [H14 SM]	Not satisfied
N=C(N)NCCC[C@@H](CC(=O)N[C@H]1CCCC[C@@H]1C(N)=O)NC(=O)[C@H]1CCCC[C@@H]1NC(=O)[C@H]1CCCC[C@@H]1NC(=O)C[C@H](Cc1ccccc1)NC(=O)[C@H]1CCCC[C@@H]1N [H14 FR]	Not satisfied
CC(C)[C@@H](CC(=O)N[C@H]1CCCC[C@@H]1C(N)=O)NC(=O)[C@H]1CCCC[C@@H]1NC(=O)[C@H]1CCCC[C@@H]1NC(=O)C[C@H](CCC(N)=O)NC(=O)[C@H]1CCCC[C@@H]1N [H14 QV]	Not satisfied
C[C@@H](CC(=O)N[C@H]1CCCC[C@@H]1C(=O)N[C@H]1CCCC[C@@H]1C(=O)N[C@@H](CC(N)=O)CC(=O)N[C@H]1CCCC[C@@H]1C(N)=O)NC(=O)[C@H]1CCCC[C@@H]1N [H14 AN]	Not satisfied
NC(=O)C[C@@H](CC(=O)N[C@H]1CCCC[C@@H]1C(=O)N[C@H]1CCCC[C@@H]1C(=O)N[C@@H](CCC(=O)O)CC(=O)N[C@H]1CCCC[C@@H]1C(N)=O)NC(=O)[C@H]1CCCC[C@@H]1N [H14 NE]	Not satisfied
C[C@@H](CC(=O)N[C@H]1CCCC[C@@H]1C(=O)N[C@H]1CCCC[C@@H]1C(=O)N[C@H](CC(=O)N[C@H]1CCCC[C@@H]1C(N)=O)Cc1ccc(O)cc1)NC(=O)[C@H]1CCCC[C@@H]1N [H14 AY]	Not satisfied
CSCC[C@@H](CC(=O)N[C@H]1CCCC[C@@H]1C(=O)N[C@H]1CCCC[C@@H]1C(=O)N[C@@H](CCCCN)CC(=O)N[C@H]1CCCC[C@@H]1C(N)=O)NC(=O)[C@H]1CCCC[C@@H]1N [H14 MK]	Satisfied
CC[C@H](C)[C@@H](CC(=O)N[C@H]1CCCC[C@@H]1C(=O)N[C@H]1CCCC[C@@H]1C(=O)N[C@@H](CCSC)CC(=O)N[C@H]1CCCC[C@@H]1C(N)=O)NC(=O)[C@H]1CCCC[C@@H]1N [H14 IM]	Not satisfied
NC(=O)[C@H]1CCCC[C@@H]1NC(=O)C[C@H](CO)NC(=O)[C@H]1CCCC[C@@H]1NC(=O)[C@H]1CCCC[C@@H]1NC(=O)C[C@H](Cc1ccc(O)cc1)NC(=O)[C@H]1CCCC[C@@H]1N [H14 YS]	Not satisfied
CSCC[C@@H](CC(=O)N[C@H]1CCCC[C@@H]1C(=O)N[C@H]1CCCC[C@@H]1C(=O)N[C@@H](CCC(=O)O)CC(=O)N[C@H]1CCCC[C@@H]1C(N)=O)NC(=O)[C@H]1CCCC[C@@H]1N [H14 ME]	Not satisfied
C[C@@H](O)[C@@H](CC(=O)N[C@H]1CCCC[C@@H]1C(=O)N[C@H]1CCCC[C@@H]1C(=O)N[C@@H](CCC(=O)O)CC(=O)N[C@H]1CCCC[C@@H]1C(N)=O)NC(=O)[C@H]1CCCC[C@@H]1N [H14 TE]	Not satisfied
C[C@@H](O)[C@@H](CC(=O)N[C@H]1CCCC[C@@H]1C(=O)N[C@H]1CCCC[C@@H]1C(=O)N[C@@H](CO)CC(=O)N[C@H]1CCCC[C@@H]1C(N)=O)NC(=O)[C@H]1CCCC[C@@H]1N [H14 TS]	Not satisfied
